meta.source: PubChem BioAssay AID1996

settings: buffer; pH 7.4; 200.0 µM

{"compound": "NS(=O)(=O)c1ccc(CNS(=O)(=O)c2cccc3nonc23)cc1", "sign": "=", "solubility kinetic (µg/mL)": 54.4}
{"compound": "CC(=O)Nc1ccc(N2C(=O)C3C4C=CC(CC4)C3C2=O)cc1 (configuration not stated)", "sign": ">", "solubility kinetic (µg/mL)": 46.6}
{"compound": "CC(=O)N1CCN=C1SCc1cccc(F)c1", "sign": "=", "solubility kinetic (µg/mL)": 36.5}
{"compound": "O=C(Nc1ccc(Nc2ccccc2)cc1)c1ccc(F)cc1", "sign": "=", "solubility kinetic (µg/mL)": 0.7}
{"compound": "Cl.Oc1cccc(Nc2c3ccccc3nc3ccccc23)c1", "sign": "=", "solubility kinetic (µg/mL)": 0.7}
{"compound": "Cc1ccc(NC(=O)CN(C)Cc2ccc(Cl)cc2)cc1", "sign": "=", "solubility kinetic (µg/mL)": 20.6}
{"compound": "Cc1ccc2c(c1)C1C[N+](C)(CC(=O)Nc3ccccc3Cl)CCC1N2C(=O)c1ccccc1Cl.[Cl-] (configuration not stated)", "sign": ">", "solubility kinetic (µg/mL)": 81.7}
{"compound": "CCCCN(CCCC)c1ncnc2nc[nH]c12", "sign": "=", "solubility kinetic (µg/mL)": 29.8}
{"compound": "CCN(CC)C1CCS(=O)(=O)C1.Cl (configuration not stated)", "sign": ">", "solubility kinetic (µg/mL)": 34.2}
{"compound": "Cc1cccc(OCC(=O)Nc2ccc3oc(=O)ccc3c2)c1", "sign": "=", "solubility kinetic (µg/mL)": 3.3}
{"compound": "CCN(CC)S(=O)(=O)c1ccc(N2CCCC2)c(NC(=O)c2ccc([N+](=O)[O-])o2)c1", "sign": "=", "solubility kinetic (µg/mL)": 49.4}
{"compound": "CC(=O)N(C)Cc1ccc(C(=O)CSc2nnc(C3CC3)n2C2CC2)cc1", "sign": ">", "solubility kinetic (µg/mL)": 57.7}
{"compound": "O=c1c2c3c(sc2nc2n1CCC2)CCCC3", "sign": "=", "solubility kinetic (µg/mL)": 33.8}
{"compound": "NC(=O)c1ccsc1NC(=O)CSc1ncnc2sccc12", "sign": "=", "solubility kinetic (µg/mL)": 6}
{"compound": "CCN1CCN(c2nc(-c3ccccc3)c3ccccc3n2)CC1", "sign": "=", "solubility kinetic (µg/mL)": 46.1}
{"compound": "O=C(CCc1ccncc1)N1CCCC(Nc2ccc(F)cc2)C1 (configuration not stated)", "sign": "=", "solubility kinetic (µg/mL)": 45.6}
{"compound": "CC1CCCN(c2nc(N(C)c3ccccc3)nc(N)c2[N+](=O)[O-])C1 (configuration not stated)", "sign": "=", "solubility kinetic (µg/mL)": 4.5}
{"compound": "COc1cccc(CNC(=O)Cn2nc(C)c([N+](=O)[O-])c2C)c1", "sign": ">", "solubility kinetic (µg/mL)": 47.7}
{"compound": "Cc1ccc(Nc2ccc([N+](=O)[O-])ccc2=O)cc1", "sign": "<", "solubility kinetic (µg/mL)": 0.3}
{"compound": "CC1CC(C)CN(S(=O)(=O)c2cccc3nonc23)C1 (configuration not stated)", "sign": "=", "solubility kinetic (µg/mL)": 5.5}
{"compound": "CC(=O)c1cc2c(cc1NC(=O)Cc1ccsc1)OCO2", "sign": "=", "solubility kinetic (µg/mL)": 10.5}
{"compound": "Cl.O=C(Nc1cccc(Cl)c1)NC1CCN(C2CCCCC2)C1 (configuration not stated)", "sign": ">", "solubility kinetic (µg/mL)": 53.7}
{"compound": "COC(=O)c1c(C)oc(C)c1S(=O)(=O)NCC1CC1", "sign": ">", "solubility kinetic (µg/mL)": 43.1}
{"compound": "CC(C)(CN1CCCC1)NS(=O)(=O)c1ccccc1.Cl", "sign": ">", "solubility kinetic (µg/mL)": 47.8}
{"compound": "O=C(CNC(=O)c1ccc(Cl)cc1Cl)NCC1CCCO1 (configuration not stated)", "sign": ">", "solubility kinetic (µg/mL)": 49.7}
{"compound": "Cc1ccc(NC(=O)CN(C)C(=O)/C=C/c2cccc(F)c2)cc1", "sign": "=", "solubility kinetic (µg/mL)": 2.2}
{"compound": "CN1c2ccccc2C(=O)NC1c1ccc([N+](=O)[O-])s1 (configuration not stated)", "sign": "=", "solubility kinetic (µg/mL)": 31.2}
